# Test system: IKZF1, ASS1 and SALL4 recruitment to CRBN
# measurement-notes: Recruitment assessment: recruitment of any tested substrate from among IKZF1, ASS1 and SALL4
# Assay type: cell-based
# condition-summary: any tested substrate at any tested compound concentration

| compound | study-system | Recruitment Assessment |
| --- | --- | --- |
| Cc1nc2ccc(C#N)c(N)c2c(=O)n1C1CCC(=O)NC1=O (stereo not drawn) | IKZF1, ASS1 and SALL4 recruitment to CRBN | TRUE |
| O=C1CCC(CN2C(=O)c3ccccc3C2=O)C(=O)N1 (stereo not drawn) | IKZF1, ASS1 and SALL4 recruitment to CRBN | FALSE |
| O=C1c2c(F)c(F)c(F)c(F)c2C(=O)N1c1ccc(F)cc1F | IKZF1, ASS1 and SALL4 recruitment to CRBN | FALSE |
| CN1CCC2(CC1)CC(=O)N(C1CCC(=O)NC1=O)C2=O (stereo not drawn) | IKZF1, ASS1 and SALL4 recruitment to CRBN | FALSE |
| Cc1ccc2c(=O)n(C3CCC(=O)NC3=O)nnc2c1 (stereo not drawn) | IKZF1, ASS1 and SALL4 recruitment to CRBN | TRUE |
| CC1CN(C)CCN1C(=O)CNc1ccc2c(c1)C(=O)N(C1CCC(=O)NC1=O)C2 (stereo not drawn) | IKZF1, ASS1 and SALL4 recruitment to CRBN | FALSE |
| O=C1CCC(N2C(=O)c3ccccc3C2=O)C(=O)N1 (stereo not drawn) [THL, Thalidomide, reference compound] | IKZF1, ASS1 and SALL4 recruitment to CRBN | TRUE |
| O=C1CCC(N2Cc3ccc(NC(=O)C4=C5C=CN=C5N=CC4)cc3C2=O)C(=O)N1 (stereo not drawn) | IKZF1, ASS1 and SALL4 recruitment to CRBN | TRUE |
| O=C1CCC(N2Cc3ccc(NCC(=O)N4CCCCC4)cc3C2=O)C(=O)N1 (stereo not drawn) | IKZF1, ASS1 and SALL4 recruitment to CRBN | FALSE |
| Cc1ccc(NC(=O)NCc2cc(C)c3c(c2)CN(C2CCC(=O)NC2=O)C3=O)cc1Cl (stereo not drawn) | IKZF1, ASS1 and SALL4 recruitment to CRBN | TRUE |
| Nc1cccc2c1CN(C1CCCC(=O)NC1=O)C2=O (stereo not drawn) | IKZF1, ASS1 and SALL4 recruitment to CRBN | TRUE |
| O=C1CCC(N2Cc3cc(Nc4ncnc5ccccc45)ccc3C2=O)C(=O)N1 (stereo not drawn) | IKZF1, ASS1 and SALL4 recruitment to CRBN | TRUE |
| CNC(=O)Nc1cccc2c1CN(C1CCC(=O)NC1=O)C2=O (stereo not drawn) | IKZF1, ASS1 and SALL4 recruitment to CRBN | TRUE |
| CC(C)OC1c2ccccc2C(=O)N1C1CCC(=O)NC1=O (stereo not drawn) | IKZF1, ASS1 and SALL4 recruitment to CRBN | TRUE |
| Nc1nccc(Nc2ccc3c(c2)CN(C2CCC(=O)NC2=O)C3=O)n1 (stereo not drawn) | IKZF1, ASS1 and SALL4 recruitment to CRBN | FALSE |
| Cc1nc(N(C)C)cc2c1C(=O)N(C1CCC(=O)NC1=O)C2=O (stereo not drawn) | IKZF1, ASS1 and SALL4 recruitment to CRBN | FALSE |
| CN(Cc1cnn(C)c1)C(=O)CNc1ccc2c(c1)C(=O)N(C1CCC(=O)NC1=O)C2 (stereo not drawn) | IKZF1, ASS1 and SALL4 recruitment to CRBN | FALSE |
| N#Cc1ccc2c(c1)C(=O)N(C1CCC(=O)NC1=O)C2 (stereo not drawn) | IKZF1, ASS1 and SALL4 recruitment to CRBN | TRUE |
| CN(C)C(=O)CNc1ccc2c(c1)C(=O)N(C1CCC(=O)NC1=O)C2 (stereo not drawn) | IKZF1, ASS1 and SALL4 recruitment to CRBN | FALSE |
| O=C1CCC(Nc2ncccn2)C(=O)N1 (stereo not drawn) | IKZF1, ASS1 and SALL4 recruitment to CRBN | FALSE |
| O=C1CCC(N2Cc3ncccc3C2=O)C(=O)N1 (stereo not drawn) | IKZF1, ASS1 and SALL4 recruitment to CRBN | TRUE |
| Cn1ncc2c(Nc3ccc4c(c3)C(=O)N(C3CCC(=O)NC3=O)C4)ncnc21 (stereo not drawn) | IKZF1, ASS1 and SALL4 recruitment to CRBN | FALSE |
| O=C1CCc2cc(C(=O)N3CCc4cccnc43)cnc2N1 | IKZF1, ASS1 and SALL4 recruitment to CRBN | FALSE |
| O=C(O)CNc1ccc2c(c1)CN(C1CCC(=O)NC1=O)C2=O (stereo not drawn) | IKZF1, ASS1 and SALL4 recruitment to CRBN | TRUE |
| O=C1CCC(N2Cc3ccc(NCC(=O)NC4CCOCC4)cc3C2=O)C(=O)N1 (stereo not drawn) | IKZF1, ASS1 and SALL4 recruitment to CRBN | TRUE |
| O=C1Cc2ccccc2C(=O)N1 | IKZF1, ASS1 and SALL4 recruitment to CRBN | FALSE |
| O=C1CCC(N2Cc3ccc(C(F)(F)F)cc3C2=O)C(=O)N1 (stereo not drawn) | IKZF1, ASS1 and SALL4 recruitment to CRBN | FALSE |
| O=C1CCC(N2Cc3cc(Nc4ncnc5sccc45)ccc3C2=O)C(=O)N1 (stereo not drawn) | IKZF1, ASS1 and SALL4 recruitment to CRBN | FALSE |
| NC(=O)Nc1cccc2c1CN(C1CCC(=O)NC1=O)C2=O (stereo not drawn) | IKZF1, ASS1 and SALL4 recruitment to CRBN | TRUE |
| CC(=O)NCC(=O)Nc1ccc2c(c1)C(=O)N(C1CCC(=O)NC1=O)C2 (stereo not drawn) | IKZF1, ASS1 and SALL4 recruitment to CRBN | TRUE |
| NC(=O)c1ccc2c(c1)C(=O)N(C1CCC(=O)NC1=O)C2 (stereo not drawn) | IKZF1, ASS1 and SALL4 recruitment to CRBN | FALSE |
| COc1ccc(Br)c2c1C(=O)N(C1CCC(=O)NC1=O)C2 (stereo not drawn) | IKZF1, ASS1 and SALL4 recruitment to CRBN | FALSE |
| Cn1ccnc(Nc2ccc3c(c2)C(=O)N(C2CCC(=O)NC2=O)C3)c1=O (stereo not drawn) | IKZF1, ASS1 and SALL4 recruitment to CRBN | FALSE |
| N#CC1c2ccccc2C(=O)N1C1CCC(=O)NC1=O (stereo not drawn) | IKZF1, ASS1 and SALL4 recruitment to CRBN | TRUE |
| Cc1cccc2c1S(=O)(=O)N(C1CCC(=O)NC1=O)C2=O (stereo not drawn) | IKZF1, ASS1 and SALL4 recruitment to CRBN | FALSE |
| CC(=O)Nc1cccc2c1C(=O)N(C1CCC(=O)NC1=O)C2 (stereo not drawn) | IKZF1, ASS1 and SALL4 recruitment to CRBN | TRUE |
| O=C1CCC(N2C(=O)CC3(Cc4ccccc4C3)C2=O)C(=O)N1 (stereo not drawn) | IKZF1, ASS1 and SALL4 recruitment to CRBN | FALSE |
| O=C1CCC(N2Cc3ccc(-c4ccccc4)cc3C2=O)C(=O)N1 (stereo not drawn) | IKZF1, ASS1 and SALL4 recruitment to CRBN | TRUE |
| CC(=O)Nc1ccc2c(c1)CN(C1CCC(=O)NC1=O)C2=O (stereo not drawn) | IKZF1, ASS1 and SALL4 recruitment to CRBN | TRUE |
